experimental-target: androgen receptor in MDA-MB453-MMTV clone 54-19 cells (Homo sapiens)
Sequence (P10275 whole entry Q868H, form open): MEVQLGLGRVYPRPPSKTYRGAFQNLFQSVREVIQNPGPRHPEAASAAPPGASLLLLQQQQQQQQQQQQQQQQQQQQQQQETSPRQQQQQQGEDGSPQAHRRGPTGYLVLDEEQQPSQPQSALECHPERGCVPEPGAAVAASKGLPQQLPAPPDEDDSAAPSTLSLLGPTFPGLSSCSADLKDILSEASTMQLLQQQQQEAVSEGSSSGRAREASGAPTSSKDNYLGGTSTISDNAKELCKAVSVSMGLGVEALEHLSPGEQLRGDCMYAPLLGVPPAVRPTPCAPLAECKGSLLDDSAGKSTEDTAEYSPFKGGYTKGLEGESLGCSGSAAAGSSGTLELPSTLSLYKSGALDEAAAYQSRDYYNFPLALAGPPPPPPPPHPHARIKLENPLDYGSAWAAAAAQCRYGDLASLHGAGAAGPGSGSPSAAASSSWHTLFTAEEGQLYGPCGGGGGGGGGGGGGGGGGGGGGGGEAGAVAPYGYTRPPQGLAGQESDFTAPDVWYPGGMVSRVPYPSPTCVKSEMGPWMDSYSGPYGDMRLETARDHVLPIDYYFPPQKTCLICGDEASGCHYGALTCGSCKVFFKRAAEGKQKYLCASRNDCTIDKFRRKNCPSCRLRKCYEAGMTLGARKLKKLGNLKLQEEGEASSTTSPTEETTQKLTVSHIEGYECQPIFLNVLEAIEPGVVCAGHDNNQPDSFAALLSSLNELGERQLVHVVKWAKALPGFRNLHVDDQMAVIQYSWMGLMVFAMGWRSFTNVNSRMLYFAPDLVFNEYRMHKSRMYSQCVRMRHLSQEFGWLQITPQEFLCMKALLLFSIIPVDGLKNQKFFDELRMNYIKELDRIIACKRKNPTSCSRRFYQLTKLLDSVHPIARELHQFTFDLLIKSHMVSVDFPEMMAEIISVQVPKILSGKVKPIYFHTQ
experiment-notes: AR Antagonist Cell Assay (MMTV-luciferase reporter, DHT-induced)
experimental-conditions: MDA-MB453-MMTV clone 54-19, 100 pM DHT, 17 hr; mean of multiple tests
outcome-measure: pIC50
Remember, pIC50 is on a log scale: it is -log10 of the molar concentration.

>  <compound>
CCC(Oc1ccc(C#N)c(C(F)(F)F)c1)c1ccccc1 (centres unmarked)

>  <pIC50>
6.46

$$$$
>  <compound>
CCCC(Oc1ccc(C#N)c(C(F)(F)F)c1)c1ccccn1 (centres unmarked)

>  <pIC50>
6.55

$$$$

// next item, pIC50 requested
## Task What value of measured pIC50 is listed for Cc1ccccc1C(C)Oc1ccc(C#N)c(Cl)c1 (centres unmarked) ?
## Result 6.33
